thermal shift delta Tm for assorted compounds
Tested on: LOC_OS01G70970-cb002;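 note: purified Escherichia coli-expressed rice kinase domain construct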
experimentalProtocol: thermal shift delta Tm vs DMSO control; higher = stronger stabilization (binding)
assaySetup: 12.5 µM; protein concentration 2 µM
attributeMeasured: thermal shift delta Tm (°C)

INSERT INTO assay_data (compound, measurement) VALUES
  ('Cn1c(=O)c(Oc2ccc(F)cc2F)cc2cnc(NC(CCO)CCO)nc21', 0.4),
  ('O=C1NC(=O)[C@@H](c2cn3c4c(cccc24)CCC3)[C@@H]1c1c[nH]c2ccccc12 [Tivantinib (ARQ 197)]', 0.39),
  ('O=C(Nc1ccc(-c2ccnc(Nc3ccc(N4CCOCC4)cc3)n2)cc1)C1CCCN1 (configuration not stated)', 0.39),
  ('NC(=O)c1ccc(N(C(N)=O)c2c(F)cccc2F)nc1-c1ccc(F)cc1F', 0.4),
  ('COc1ccc(Cl)cc1NC(=O)Nc1cc(C)nc2ccccc12', 0.66),
  ('CC(C)(C)c1nc(-c2cccc(NS(=O)(=O)c3c(F)cccc3F)c2F)c(-c2ccnc(N)n2)s1', 3.43),
  ('CC(C)c1cnn2c(NCc3ccccc3-n3cccn3)nc(OC3CCCNC3)nc12 (configuration not stated)', 0.27);

The measurements presented in this section are drawn from the supplement of paper PMC9694430.
